Test system: PC-12
Assay: Cytotoxicity against rat PC12 cells assessed as decrease in cell viability at 20 uM after 24 hrs by MTT assay
Format: cell-based
Conditions: pc-12, 24 h
valueType: Activity

molecularstring=CCCCCCCCC/C=C\CC/C=C/[C@@H](O)[C@H](CO[C@@H]1O[C@H](CO)[C@@H](O)[C@H](O)[C@H]1O)NC(=O)[C@H](O)CCCCCCCCCCCCCCCCCC tgt=PC-12 result=Non-Toxic
molecularstring=CCCCCCCCC/C=C\CC/C=C/[C@@H](O)[C@H](CO[C@@H]1O[C@H](CO)[C@@H](O)[C@H](O)[C@H]1O)NC(=O)[C@H](O)CCCCCCCCCCCCCC tgt=PC-12 result=Non-Toxic
molecularstring=CCCCCCCCC/C=C\CCC[C@@H](O)[C@@H](O)[C@H](CO[C@@H]1O[C@H](CO)[C@@H](O)[C@H](O)[C@H]1O)NC(=O)[C@H](O)CCCCCCCCCCCCCCCCCCCC tgt=PC-12 result=Non-Toxic
molecularstring=CCCCCCCCC/C=C/CC/C=C/[C@@H](O)[C@H](CO[C@@H]1O[C@H](CO)[C@@H](O)[C@H](O)[C@H]1O)NC(=O)[C@H](O)CCCCCCCCCCCCCCCCCCC tgt=PC-12 result=Non-Toxic
molecularstring=CCCCCCCCC/C=C\CC/C=C/[C@@H](O)[C@H](CO[C@@H]1O[C@H](CO)[C@@H](O)[C@H](O)[C@H]1O)NC(=O)[C@H](O)CCCCCCCCCCCCCCCCCCCCCC tgt=PC-12 result=Non-Toxic
molecularstring=CCCCCCCCC/C=C/CC/C=C/[C@@H](O)[C@H](CO[C@@H]1O[C@H](CO)[C@@H](O)[C@H](O)[C@H]1O)NC(=O)[C@H](O)CCCCCCCCCCCCCCCCCC tgt=PC-12 result=Non-Toxic

* * *

System: PC-12
Assay: Cytotoxicity against rat PC12 cells assessed as decrease in cell viability at 20 uM after 24 hrs by MTT assay
Type: cell-based
Conditions: pc-12, 24 h
valueType: Activity

molecularstring=CCCCCCCCC/C=C\CC/C=C/[C@@H](O)[C@H](CO[C@@H]1O[C@H](CO)[C@@H](O)[C@H](O)[C@H]1O)NC(=O)[C@H](O)CCCCCCCCCCCCCCCCCCCC result=Non-Toxic
molecularstring=CCCCCCCCC/C=C/CC/C=C/[C@@H](O)[C@H](CO[C@@H]1O[C@H](CO)[C@@H](O)[C@H](O)[C@H]1O)NC(=O)[C@H](O)CCCCCCCCCCCCCCCCCCCC result=Non-Toxic
molecularstring=CCCCCCCCC/C=C/CC/C=C/[C@@H](O)[C@H](CO[C@@H]1O[C@H](CO)[C@@H](O)[C@H](O)[C@H]1O)NC(=O)[C@H](O)CCCCCCCCCCCCCCCCCCCCCC result=Non-Toxic
